Target: UniProt:P29274
Experiment: A2A competition binding assay using Scintillation Proximity technology
Settings: 0.25 μg of membranes from HEK293 cells expressing the human A2a receptor per well; 0.5 nM tritiated radioligand; Cheng-Prusoff
hey, just use label 1 if measured Ki is less than 5 nM, otherwise label 0

Below, 3 compounds whose answers are already recorded.
compound: COc1cccc2c1nc(N)n1nc(C3CCCC(N)C3)nc21 (single isomer, unassigned) [Example 30A]
class.assignment: label 0

compound: COc1cccc2c1nc(N)n1nc([C@@H]3CCCN(Cc4cc(F)cc(C(F)(F)F)c4)C3)nc21 [Example 46]
class.assignment: label 1

compound: COc1cccc2c1nc(N)n1nc(C3CC4CCC3N(CC(F)(F)F)C4)nc21 (single isomer, unassigned) [Example 35C]
class.assignment: label 1

[in] Determine whether this compound shows Ki lower than 5 nM (ties excluded): COc1cccc2c1nc(N)n1nc(C3CNCC(F)(F)C3)nc21 (single isomer, unassigned) [Example 33A]
[out] label 0

[in] Determine whether this compound shows Ki lower than 5 nM (ties excluded): COc1cccc2c1nc(N)n1nc([C@@H]3CCCN(CCC(F)(F)F)C3)nc21 [Example 1]
[out] label 1

[in] Determine whether this compound shows Ki lower than 5 nM (ties excluded): COc1cccc2c1nc(N)n1nc(C3CC4CCC3N(CC(F)(F)F)C4)nc21 (single isomer, unassigned) [Example 35A]
[out] label 0

[in] Determine whether this compound shows Ki lower than 5 nM (ties excluded): COc1cccc2c1nc(N)n1nc([C@@H]3CCCN(CCN(C)C)C3)nc21 [Example 4]
[out] label 0

###

Molecular target: human A2A receptor (Homo sapiens (Human))
Test: A2A competition binding assay using Scintillation Proximity technology
Conditions: 0.25 μg of membranes from HEK293 cells expressing the human A2a receptor per well; 0.5 nM tritiated radioligand; Cheng-Prusoff
property.measured: pKi
Give bare numbers, as −log10 of the molar value.

molecule: COc1cccc2c1nc(N)n1nc(C3CCCC(N)C3)nc21 (single isomer, unassigned) [Example 30C]
recorded.measurement: 6.94

molecule: COc1cccc2c1nc(N)n1nc(C3CNCC(F)(F)C3)nc21 (single isomer, unassigned) [Example 33B]
recorded.measurement: 8.62

Can you give me pKi for all of these, one by one?
1. COc1cccc2c1nc(N)n1nc([C@@H]3CCCN(CC(F)(F)F)C3)nc21
2. COc1cccc2c1nc(N)n1nc([C@@H]3CCCN(CC4CC(F)(F)C4)C3)nc21
3. COc1cccc2c1nc(N)n1nc(C3CCCC(CCC(F)(F)F)C3)nc21 (single isomer, unassigned) [Example 29C]
4. COc1cccc2c1nc(N)n1nc(C3CN(CC(F)F)CC(F)(F)C3)nc21 (single isomer, unassigned) [Example 34A]

[out]
1. 9.10
2. 9.15
3. 9.40
4. 8.96

[in] Name the recorded pKi of the item COc1cccc2c1nc(N)n1nc(C3CCCC(CCC(F)(F)F)C3)nc21 (single isomer, unassigned) [Example 29B] in your answer.
[out] 8.77

###

Molecular target: UniProtKB P29274
Assay: A2A competition binding assay using Scintillation Proximity technology
Details: 0.25 μg of membranes from HEK293 cells expressing the human A2a receptor per well; 0.5 nM tritiated radioligand; Cheng-Prusoff
Kindly supply the reported Ki values for the records listed here.
Numbers only, in nM.

compound: COc1cccc2c1nc(N)n1nc([C@H]3CN(C4CCC(F)(F)CC4)CCO3)nc21
reading.unit: nM
Ki: 3
--
compound: COc1cccc2c1nc(N)n1nc(C3CC(F)(F)CCO3)nc21 (single isomer, unassigned) [Example 55B]
reading.unit: nM
Ki: 2

Can you give me Ki for all of these, one by one?
1. COc1cccc2c1nc(N)n1nc([C@@H]3CCCN(CC4CCOCC4)C3)nc21
2. COc1cccc2c1nc(N)n1nc([C@H]3CCCN(CCC(F)(F)F)C3)nc21

[out]
[5, 14]

Can you give me Ki for all of these, one by one?
1. COc1cccc2c1nc(N)n1nc(C3CCCC(N)C3)nc21 (single isomer, unassigned) [Example 30B]
2. COc1cccc2c1nc(N)n1nc([C@@H]3CCN(CC(F)(F)F)C3)nc21
3. COc1cccc2c1nc(N)n1nc([C@@H]3CC(F)(F)CN3)nc21
4. COc1cccc2c1nc(N)n1nc(C3CCC(F)(F)CN3)nc21 (single isomer, unassigned) [Example 58B]

[out]
1. 44
2. 2
3. 0.5
4. 0.3

###

Molecular target: human A2A receptor (Homo sapiens (Human), UniProt P29274)
Sequence (P29274 whole entry): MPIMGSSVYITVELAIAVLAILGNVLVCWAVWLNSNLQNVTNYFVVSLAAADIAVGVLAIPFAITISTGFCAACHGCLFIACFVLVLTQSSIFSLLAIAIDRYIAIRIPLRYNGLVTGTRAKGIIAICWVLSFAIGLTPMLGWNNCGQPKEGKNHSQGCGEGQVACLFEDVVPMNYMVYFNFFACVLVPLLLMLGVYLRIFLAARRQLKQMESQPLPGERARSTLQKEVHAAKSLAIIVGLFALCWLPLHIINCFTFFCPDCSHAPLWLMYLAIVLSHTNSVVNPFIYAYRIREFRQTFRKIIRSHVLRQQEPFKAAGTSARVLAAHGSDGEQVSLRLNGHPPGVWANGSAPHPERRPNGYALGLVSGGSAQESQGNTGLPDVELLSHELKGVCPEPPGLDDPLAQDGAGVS
Assay: A2A competition binding assay using Scintillation Proximity technology
Details: 0.25 μg of membranes from HEK293 cells expressing the human A2a receptor per well; 0.5 nM tritiated radioligand; Cheng-Prusoff
property.measured: pKi
One number for each entry, as −log10 of the molar value.

Completed entries (count: 3):
molecule: COc1cccc2c1nc(N)n1nc([C@@H]3CCCN(CC(C(F)(F)F)C(F)(F)F)C3)nc21 [Example 2]
test.system: human A2A receptor (Homo sapiens (Human), UniProt P29274)
pKi: 9.52
--
molecule: COc1cccc2c1nc(N)n1nc(C3CCCC(CCC(F)(F)F)C3)nc21 (single isomer, unassigned) [Example 29A]
test.system: human A2A receptor (Homo sapiens (Human), UniProt P29274)
pKi: 7.80
--
molecule: CCC(C)(C)N1CCC[C@@H](c2nc3c4cccc(OC)c4nc(N)n3n2)C1 [Example 31]
test.system: human A2A receptor (Homo sapiens (Human), UniProt P29274)
pKi: 7.48

Can you give me pKi for all of these, one by one?
1. COc1cccc2c1nc(N)n1nc([C@@H]3CCCN(CC(F)F)C3)nc21 [Example 3]
2. COc1cccc2c1nc(N)n1nc(C3CCCCN(CC(F)(F)F)C3)nc21 (single isomer, unassigned) [Example 32B]

[out]
9.40
8.23

Can you give me pKi for all of these, one by one?
1. COc1cccc2c1nc(N)n1nc([C@@H]3CCCN(CCC4CC4)C3)nc21 [Example 14]
2. COc1cccc2c1nc(N)n1nc(C3CC4CCC3N(CC(F)(F)F)C4)nc21 (single isomer, unassigned) [Example 35B]
3. COc1cccc2c1nc(N)n1nc([C@@H]3CCCN(CC4(C)COC4)C3)nc21 [Example 18]
4. COCCN1CCC[C@@H](c2nc3c4cccc(OC)c4nc(N)n3n2)C1 [Example 6]
5. COc1cccc2c1nc(N)n1nc(C3CCC(F)(F)CN3)nc21 (single isomer, unassigned) [Example 58A]
6. Nc1nc2c(OC(F)F)cccc2c2nc([C@@H]3CCCN(CC(F)F)C3)nn12 [Example 25]
7. COc1cccc2c1nc(N)n1nc([C@@H]3CCCN(CCC(F)(F)C(F)(F)F)C3)nc21 [Example 11]
8. COc1cccc2c1nc(N)n1nc([C@@H]3CCCN(C4CC4)C3)nc21 [Example 52]

[out]
1: 8.16; 2: 7.27; 3: 8.52; 4: 8.51; 5: 8.62; 6: 8.92; 7: 9.40; 8: 8.92

Can you give me pKi for all of these, one by one?
1. COc1cccc2c1nc(N)n1nc([C@@H]3CCCN(CC(C)(C)F)C3)nc21 [Example 43]
2. COc1cccc2c1nc(N)n1nc(C3CCCC(N)C3)nc21 (single isomer, unassigned) [Example 30D]
3. COc1cccc2c1nc(N)n1nc([C@@H]3CCCN(CC4CCCC4)C3)nc21 [Example 47]

[out]
1: 9.22; 2: 6.18; 3: 8.01

###

Molecular target: human A2A receptor (Homo sapiens (Human), UniProt P29274)
Assay: A2A competition binding assay using Scintillation Proximity technology
Conditions: values marked ^: 1 μg of membrane/well (HEK293 cells expressing the human A2a receptor); 0.5 nM tritiated radioligand; Cheng-Prusoff
hey, just use Fulfilled if measured Ki is less than 30 nM, otherwise Not fulfilled

Below, 7 compounds whose answers are already recorded.
compound: COc1cccc2c1nc(N)n1nc(C3CCCN(c4ccccc4)C3)nc21 (single isomer, unassigned) [Example 50B]
class.assignment: Not fulfilled
//
compound: CCN1CCC[C@@H](c2nc3c4cccc(OC)c4nc(N)n3n2)C1
class.assignment: Not fulfilled
//
compound: COc1cccc2c1nc(N)n1nc([C@@H]3CCCN(S(=O)(=O)c4ccccc4)C3)nc21
class.assignment: Fulfilled
//
compound: Nc1nc2c3c(ccc2c2nc(C4CCCN(CCC(F)(F)F)C4)nn12)OC(F)(F)O3 (single isomer, unassigned) [Example 56B]
class.assignment: Not fulfilled
//
compound: COc1cccc2c1nc(N)n1nc(C3CCCN(c4ccccc4)C3)nc21 (single isomer, unassigned) [Example 50A]
class.assignment: Fulfilled
//
compound: C#CC(C)(C)N1CCC[C@@H](c2nc3c4cccc(OC)c4nc(N)n3n2)C1
class.assignment: Fulfilled
//
compound: COc1cccc2c1nc(N)n1nc([C@@H]3CCCN(C(=O)c4ccccc4)C3)nc21
class.assignment: Fulfilled

[in] Determine whether this compound shows Ki lower than 30 nM (ties excluded): `COc1cccc2c1nc(N)n1nc([C@@H]3CCCN(c4ncns4)C3)nc21`
[out] Fulfilled
